assay: MTT cytotoxicity assay, HF-P4; assay type: cell-based, human; details: human, HF-P4 normal human dermal fibroblasts, HF-P4, 15 uM, repeats, read-out: Cell viability %
OBSERVED_PROPERTY: viability at 48 h, 15 µM

COc1cccc(/C=N/NC(=O)c2ccc(-c3cc4c(cc(-c5ccc(C(=O)N/N=C/c6cccc(OC)c6O)cc5)n4-c4ccc(C)cc4)n3-c3ccc(C)cc3)cc2)c1O    63%
Cc1ccc(-n2c(-c3ccc(C(=O)N/N=C/c4cc(F)ccc4O)cc3)cc3c2cc(-c2ccc(C(=O)N/N=C/c4cc(F)ccc4O)cc2)n3-c2ccc(C)cc2)cc1    65.6%
Cc1ccc(-n2c(-c3ccc(C(=O)N/N=C/c4ccccc4O)cc3)cc3c2cc(-c2ccc(C(=O)N/N=C/c4ccccc4O)cc2)n3-c2ccc(C)cc2)cc1    62.5%
CCN(CC)c1ccc(/C=N/NC(=O)c2ccc(-c3cc4c(cc(-c5ccc(C(=O)N/N=C/c6ccc(N(CC)CC)cc6O)cc5)n4-c4ccc(C)cc4)n3-c3ccc(C)cc3)cc2)c(O)c1    69.4%

The reported measurements were obtained from paper PMC9505425.
